target: Gal(a1-4)Gal(b1-3)GlcNAc(b1-2)Man(a1-3)[Gal(a1-4)Gal(b1-3)GlcNAc(b1-2)Man(a1-6)]Man(b1-4)GlcNAc(b1-4)GlcNAc; assay: glycan array binding signal (z-score within array); higher = stronger binding; settings: glycan notation: IUPAC condensed, linker removed
The sample as a whole holds a higher share of the strongest signals than the screen did.
measuredAttribute: glycan array binding signal (z-score)
One number for each entry.

binder	glycan array binding signal (z-score)
OrysaEULS2 (Oryza sativa) (protein) MVYCRANPNYAMTARNGAVVLAPANPKDEYQHWIKDMRWSTSIKDEEGYPAFALVNKATGQAIKHSLGQSHPVRLVPYNPEVMDESVLWTESRDVGNGFRCIRMVNNIYLNFDAFHGDKYHGGVRDGTDIVLWKWCEGDNQRWKIQPYYILEQKLISEEDLNSAVDHHHHHH	2.38

// next item, glycan array binding signal (z-score) requested
glycan array binding signal (z-score) for GSL-I (Griffonia simplicifolia) (protein) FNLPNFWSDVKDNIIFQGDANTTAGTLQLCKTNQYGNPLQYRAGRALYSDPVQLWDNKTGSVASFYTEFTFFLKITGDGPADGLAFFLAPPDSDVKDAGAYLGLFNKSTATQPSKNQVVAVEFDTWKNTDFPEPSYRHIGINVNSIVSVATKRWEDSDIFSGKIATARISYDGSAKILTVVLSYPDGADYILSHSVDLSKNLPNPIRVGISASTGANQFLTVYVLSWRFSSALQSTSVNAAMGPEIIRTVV is 9.69
